Listing of recorded pIC50 by entry.
# Tested on: Lung (A-549) cancer cell line
# assay-overview: IC50 in cancer cell lines (Table 3), lung
# Type: cell-based, human
# details: Mean ± SEM, n ≥ 3
pIC50 is defined as minus the log10 of a concentration measured in mol/L.

smiles-str	target-system	pIC50
CCCCCCCCc1ccc([C@@H]2CCN[C@H]2CO)cc1.Cl	Lung (A-549) cancer cell line	5.08

# query: pIC50 of entry `CCCCCCCCc1ccc([C@@H]2CCN[C@H]2COC)cc1.Cl`
5.11

* * *

# System: Breast (MDA-MB-231) cancer cell line
# assay-overview: IC50 in cancer cell lines (Table 3), breast
# Assay type: cell-based, human
# details: Mean ± SEM, n ≥ 3
experimental-readout: IC50 (µM)
The reply should contain only the number, in µM.

compound	target-system	experimental-readout	numeric-result
CCCCCCCCc1ccc([C@@H]2CCN[C@H]2COC)cc1.Cl [Compound 14]	Breast (MDA-MB-231) cancer cell line	IC50	4

May I ask what IC50 has been recorded for CCCCCCCCc1ccc([C@@H]2CCN[C@H]2CO)cc1.Cl [Compound 6] ?
4.9

* * *

# target-system: S1P receptor 3 (Homo sapiens, UniProt Q99500)
# Construct: expressed in transfected cells
# Sequence (Q99500 whole entry): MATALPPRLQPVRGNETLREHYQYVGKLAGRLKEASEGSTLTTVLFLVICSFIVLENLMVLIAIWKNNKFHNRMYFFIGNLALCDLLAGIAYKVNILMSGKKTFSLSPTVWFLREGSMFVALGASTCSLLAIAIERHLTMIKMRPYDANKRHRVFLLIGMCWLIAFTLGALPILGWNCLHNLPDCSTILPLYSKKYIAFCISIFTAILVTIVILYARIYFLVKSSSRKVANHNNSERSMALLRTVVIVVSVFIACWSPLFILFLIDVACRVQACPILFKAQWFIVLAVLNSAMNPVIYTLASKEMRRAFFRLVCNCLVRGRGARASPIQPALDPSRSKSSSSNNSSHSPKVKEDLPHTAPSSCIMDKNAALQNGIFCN
# assay-overview: S1P receptor activation in CHO cells, S1P3
# Assay type: cell-based
# details: CHO cells over-expressing human S1P3
experimental-readout: activation of S1P receptor 3

smiles-str	result
CCCCCCCCc1ccc([C@H]2CCN[C@@H]2COP(=O)(O)O)cc1	failed to activate
CCCCCCCCc1ccc([C@@H]2CCN[C@H]2CO)cc1.Cl	failed to activate
CCCCCCCCc1ccc([C@@H]2CCN[C@H]2COC)cc1.Cl	not able to activate
CCCCCCCCc1ccc([C@H]2CCN[C@@H]2CO)cc1.Cl	failed to activate

Please turn your attention to the following entry.
Entry `CCCCCCCCc1ccc([C@@H]2CCN[C@H]2C)cc1.Cl` : reported activation of S1P receptor 3 = ?
not able to activate

Measured values drawn from patent US10995068B2 for this set.
